method: ATG_Sox_CIS: Attagene CIS-FACTORIAL HepG2 Assay for human SRY-box transcription factor (SOX) (AID 2282960)
conditions: HepG2 Attagene cis-factorial SOX reporter, mRNA; actives raise or lower the signal
Active and inactive are the calls of the source. How the source made its calls: active means hit-call score of the fitted dose curve at least 0.9, where 1 is the maximum; inactive means score below 0.9.
Allowed answers: active, inactive

INSERT INTO measurements (molecule, category) VALUES
  ('Cc1ccc(C(C)(C)C)c(O)c1', 'active'),
  ('Cc1occc(=O)c1O', 'inactive'),
  ('CC(C)COC(=O)CCCCC(=O)OCC(C)C', 'inactive'),
  ('CCC(C)N(C)C(=O)c1cc2ccccc2c(-c2ccccc2Cl)n1 (centres undefined)', 'inactive'),
  ('C=CCc1ccc(OC)c(OC)c1', 'inactive'),
  ('COC(=O)CCCC(=O)OC', 'inactive'),
  ('NC=O', 'inactive'),
  ('O=C(Oc1ccccc1)c1cccc(C(=O)Oc2ccccc2)c1', 'inactive');

Q. Fill in: this test's call for CCCCCCC(CCCCCCCCCCC(=O)OCC(COC(C)=O)OC(C)=O)OC(C)=O (centres undefined) is ___
A. inactive

Q. Fill in: this test's call for COC(=O)CCC(=O)OC is ___
A. inactive

Q. Fill in: this test's call for Nc1nc(=S)c2[nH]cnc2[nH]1 is ___
A. inactive

Q. Fill in: this test's call for CC(=O)OCC(COC(C)=O)OC(C)=O is ___
A. inactive

Q. Fill in: this test's call for Cn1cnc2c1c(=O)[nH]c(=O)n2C is ___
A. inactive

Q. Fill in: this test's call for O=C1O[C@H]([C@H](O)CO)C(O)=C1O is ___
A. inactive

* * *

method: CCTE_Simmons_MITO_basal_resp_rate: CCTE's HepG2 Seahorse XF Respirometric Screening Assay at Basal Respiratory State, Simmons Lab (AID 2284001)
conditions: actives raise or lower the signal
Calls of active or inactive are those of the source. Rule for the calls: active = hit-call score of the fitted dose curve at least 0.9, where 1 is the maximum; inactive = score below 0.9.
Allowed answers: True for active, False for inactive

INSERT INTO results (molecule, category) VALUES
  ('CC(=O)O[C@]1(C(C)=O)CC[C@H]2[C@@H]3C=C(Cl)C4=CC(=O)[C@@H]5C[C@@H]5[C@]4(C)[C@H]3CC[C@@]21C', 'True'),
  ('CC(C)(O)c1ccc(CNC(=O)c2cccnc2Oc2ccc(F)cc2)cc1', 'False'),
  ('Cc1c(C)c2c(c(C)c1O)CCC(C)(COc1ccc(CC3SC(=O)NC3=O)cc1)O2 (stereo not drawn)', 'True'),
  ('Cc1cc(SC2=C(O)C[C@@](CCc3ccc(N)cc3)(C(C)C)OC2=O)c(C(C)(C)C)cc1CO', 'False'),
  ('CCc1cc(C2=C(C(=O)O)N(c3ccccc3C(F)(F)F)S(=O)(=O)c3ccccc32)cc2c1OCO2', 'False'),
  ('O=C1OC(c2ccc(O)cc2)(c2ccc(O)cc2)c2ccccc21', 'True');

Q. Fill in: this test's call for Cc1ccc(C(C)(C)C)c(O)c1 is ___
A. True

Q. Fill in: this test's call for Cc1cc(Cc2ccc(N)c(C)c2)ccc1N is ___
A. False

* * *

method: APR_HepG2_StressKinase_72hr: Apredica 72-hour HepG2 Assay for Stress Kinase (AID 2282921)
conditions: HepG2 stress kinase (phospho-c-Jun) imaging, actives raise or lower the signal
Calls of active or inactive are those of the source. The calls were made as follows: active = hit-call score of the fitted dose curve at least 0.9, where 1 is the maximum; inactive = score below 0.9.
Allowed answers: TRUE = active, FALSE = inactive

Answered examples (4):
INSERT INTO results (compound, category) VALUES
  ('S=c1[nH]c2ccccc2s1', 'FALSE'),
  ('CC1=C(C)S(=O)(=O)CCS1(=O)=O', 'FALSE'),
  ('Cc1cc(Cc2ccc(N)c(C)c2)ccc1N', 'FALSE'),
  ('O=C1NC(=O)C(c2ccccc2)(c2ccccc2)N1', 'FALSE');

// next entry
Q. Fill in: this test's call for O=C(O)CC(O)(CC(=O)O)C(=O)O is ___
A. FALSE

* * *

measured.on: Retinoic acid receptor RXR-alpha (Homo sapiens)
method: OT_NURR1_NURR1RXRa_1440: Odyssey Thera (OT) 24-hour HEK293T Protein Complementation Assay for Nurr1/retinoid X receptor (RXR) (AID 2283386)
Inconclusive results are not listed. Active and inactive are the calls of the source. How the source made its calls: active means hit-call score of the fitted dose curve at least 0.9, where 1 is the maximum; inconclusive means response in the unintended direction; inactive means score below 0.9.
Allowed answers: Y = active, N = inactive

Answered examples (5):
INSERT INTO measurements (compound, category) VALUES
  ('CCCCOC(=O)CCCCC(=O)OCCCC', 'N'),
  ('COC(=O)CCCC(=O)OC', 'N'),
  ('CC(N)=O', 'N'),
  ('CN(C)C(=O)NC1(c2ccccc2)CCN(CCC[C@]2(c3ccc(Cl)c(Cl)c3)CCCN(C(=O)c3ccccc3)C2)CC1', 'N'),
  ('Cc1occc(=O)c1O', 'N');

// next entry
Q. Fill in: this test's call for C=CCCCCCCCCCCCC is ___
A. N

* * *

Read-out: Thyroid Hormone Responsive (THRSP), THRSP (gene 7069)
method: LTEA_HepaRG_THRSP: Life Technologies and Expression Analysis (LTEA) Assay for Thyroid Hormone Responsive (THRSP) using HepaRG (AID 2283536)
conditions: mRNA level, 48 h; actives raise or lower the signal
Active and inactive are the calls of the source. How the source made its calls: active means hit-call score of the fitted dose curve at least 0.9, where 1 is the maximum; inactive means score below 0.9.
Allowed answers: active, inactive

Answered examples (5):
INSERT INTO measurements (smiles_notation, category) VALUES
  ('COC(=O)CCCC(=O)OC', 'inactive'),
  ('CC(=O)O', 'inactive'),
  ('CN(C)C(=O)NC1(c2ccccc2)CCN(CC[C@@]2(c3ccc(F)c(F)c3)CN(C(=O)c3ccccc3)CCO2)CC1', 'active'),
  ('C=CCc1ccc(OC)c(OC)c1', 'inactive'),
  ('CCCCCCCCCCCCCCCCO', 'inactive');

Q. Fill in: this test's call for CCCCCCCC(=O)OC is ___
A. inactive

Q. Fill in: this test's call for Cc1ccc(C(C)(C)C)c(O)c1 is ___
A. inactive

Q. Fill in: this test's call for C/C=C/C=C/C(=O)O is ___
A. inactive

Q. Fill in: this test's call for Cc1occc(=O)c1O is ___
A. inactive

Q. Fill in: this test's call for CCCC(=O)O is ___
A. inactive

Q. Fill in: this test's call for O=C1OC(c2ccc(O)cc2)(c2ccc(O)cc2)c2ccccc21 is ___
A. active

Q. Fill in: this test's call for CC(C)OC(=O)C(C)(C)Oc1ccc(C(=O)c2ccc(Cl)cc2)cc1 is ___
A. inactive

Q. Fill in: this test's call for c1ccc2occc2c1 is ___
A. inactive

* * *

method: ATG_PXRE_CIS: Attagene CIS-FACTORIAL HepG2 Assay for human Pregnane X Receptor Element (PXRE) (AID 2282957)
conditions: HepG2 Attagene CIS-FACTORIAL PXRE reporter, mRNA; actives raise or lower the signal
The source made the active and inactive calls. The calls were made as follows: active = hit-call score of the fitted dose curve at least 0.9, where 1 is the maximum; inactive = score below 0.9.
Allowed answers: class 1 (active), class 0 (inactive)

INSERT INTO assay_data (compound, category) VALUES
  ('COc1ccc(C(=O)Nc2nc3ccccc3c(NCc3ccccc3)c2C#N)cc1', 'class 1'),
  ('CC(C)(C)c1ccccc1', 'class 0'),
  ('O=C(O)c1[nH]n(-c2ccc(S(=O)(=O)O)cc2)c(=O)c1N=Nc1ccc(S(=O)(=O)O)cc1', 'class 1'),
  ('Cc1occc(=O)c1O', 'class 0'),
  ('CCCCC(CC)CO (centres undefined)', 'class 1'),
  ('CC(COCC(C)OC(=O)c1ccccc1)OC(=O)c1ccccc1 (centres undefined)', 'class 1'),
  ('Oc1ccccc1O', 'class 0'),
  ('O=C1NC(=O)C(c2ccccc2)(c2ccccc2)N1', 'class 0'),
  ('CN(C)CCCN1c2ccccc2Sc2ccc(Cl)cc21', 'class 0'),
  ('CCCCCCCCCCCCCCOS(=O)(=O)O', 'class 0');

Q. Fill in: this test's call for O=C(O)CN(CC(=O)O)CC(=O)O is ___
A. class 0

* * *

method: ATG_NFI_CIS: Attagene CIS-FACTORIAL HepG2 Assay for human Nuclear Factor I (NFI) (AID 2282989)
conditions: HepG2 cis-regulatory reporter, NFI response element transcription; actives raise or lower the signal
Active and inactive are the calls of the source. How the source made its calls: active means hit-call score of the fitted dose curve at least 0.9, where 1 is the maximum; inactive means score below 0.9.
Allowed answers: Y = active, N = inactive

INSERT INTO assay_data (compound, category) VALUES
  ('Nc1nc(Cl)nc2c1ncn2[C@H]1C[C@H](O)[C@@H](CO)O1', 'N'),
  ('COC(=O)[C@H]1[C@H]2C[C@@H]3c4[nH]c5cc(OC)ccc5c4CCN3C[C@H]2C[C@@H](OC(=O)c2cc(OC)c(OC)c(OC)c2)[C@@H]1OC', 'N'),
  ('NC1CCCCC1', 'N'),
  ('O=C(O)CN(CC(=O)O)CC(=O)O', 'N'),
  ('Cc1ccc(C(C)(C)C)c(O)c1', 'Y');

Q. Fill in: this test's call for CC(=O)CC(c1ccccc1)c1c(O)c2ccccc2oc1=O (centres undefined) is ___
A. N

Q. Fill in: this test's call for O=[Si]=O is ___
A. N

Q. Fill in: this test's call for NC=O is ___
A. N

Q. Fill in: this test's call for C/C=C/C=C/C(=O)O is ___
A. N
